Can you tell me self-splicing fitness (ln) for the items I'm about to list?
- Test: self-splicing fitness, log relative to wild type (ln ratio); higher = more splicing; Tetrahymena group I intron in knt gene, E. coli kanamycin selection, DiMSum; sequences stand for … in CUCUCU…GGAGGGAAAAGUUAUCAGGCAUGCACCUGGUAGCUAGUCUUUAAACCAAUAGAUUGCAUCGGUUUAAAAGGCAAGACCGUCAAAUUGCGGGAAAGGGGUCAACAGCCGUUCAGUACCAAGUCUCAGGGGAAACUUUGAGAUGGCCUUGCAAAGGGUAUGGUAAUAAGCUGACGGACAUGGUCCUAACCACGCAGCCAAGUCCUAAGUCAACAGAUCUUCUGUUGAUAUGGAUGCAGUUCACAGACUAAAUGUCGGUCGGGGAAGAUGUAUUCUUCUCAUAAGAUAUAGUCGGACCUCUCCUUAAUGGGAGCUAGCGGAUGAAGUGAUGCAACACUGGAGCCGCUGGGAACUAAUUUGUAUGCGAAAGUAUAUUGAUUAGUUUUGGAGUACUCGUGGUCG;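 further: selection with 25 µg/mL kanamycin versus none on LB agar overnight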
- Run Conditions: 37 °C

self-splicing fitness (ln) lookup needed for GGACAGCAAUAUUACGAUCU , thanks.
-1.8

Please report the recorded self-splicing fitness (ln) for GACUAGCAAUAUUACGUCGA .
-0.484

Tell me the measured self-splicing fitness (ln) of ACUUAGCAAUAUUACGAAAG , please.
-0.697

Return reported self-splicing fitness (ln); argument: UUAAAGCAAUAUUACGGUGC
-2.14

// lookup self-splicing fitness (ln) for AGAAAGCAAUAUUACGUCGC
-1.76

Could you share which self-splicing fitness (ln) value was measured for CGCGAGCAAUAUUACGUUAU ?
-3.49

What does the data say about its self-splicing fitness (ln)? Entry: GAAUAGCAAUAUUACGUCCC
-0.165

Which self-splicing fitness (ln) reading was recorded for the sequence GUAGAGCAAUAUUACGACUU ?
0.104

Give the measured self-splicing fitness (ln) of CGACAGCAAUAUUACGGUGA .
-1.55

I'd like to know its self-splicing fitness (ln). The sequence in question is GAAGAGCAAUAUUACGAACC
-1.13

Look up self-splicing fitness (ln) for this sequence: CGGUAGCAAUAUUACGGUGU
-2.04

Consider the sequence CACUAGCAAUAUUACGAUCU and give its measured self-splicing fitness (ln).
-2.18

Endpoint output: self-splicing fitness (ln) of CAAGAGCAAUAUUACGGGGU . Value?
-2.61

Tell me the measured self-splicing fitness (ln) of CGCAAGCAAUAUUACGAGCC , please.
-0.349

// self-splicing fitness (ln) lookup, key: GUCUAGCAAUAUUACGACGA
-0.293

Give the measured self-splicing fitness (ln) of AUCAAGCAAUAUUACGAGUA .
-0.436

Fill in: self-splicing fitness (ln) of GUUCAGCAAUAUUACGUGAG is ___
-0.408

// query self-splicing fitness (ln) value for entry GCGGAGCAAUAUUACGUUAU
-2.81

Name the recorded self-splicing fitness (ln) for CUGUAGCAAUAUUACGUAGG .
-0.77

What measured self-splicing fitness (ln) goes with AUCCAGCAAUAUUACGGGUA ?
-1.21

Using the record for ACGAAGCAAUAUUACGAGCA , report its self-splicing fitness (ln).
-1.32

Quick one: self-splicing fitness (ln) of UAGUAGCAAUAUUACGCUCG ?
0.103

Name the reported self-splicing fitness (ln) value associated with the sequence GCUCAGCAAUAUUACGUACG
-0.485

Given the entry UUGAAGCAAUAUUACGGAUC , report its measured self-splicing fitness (ln).
-0.501

// returns reported self-splicing fitness (ln) for input AUGAAGCAAUAUUACGAAAA
-0.92

// query self-splicing fitness (ln) value for entry GACCAGCAAUAUUACGUUGC
-1.56

So what does the record say about self-splicing fitness (ln) for GCUUAGCAAUAUUACGUAGG ?
-0.916

What value of self-splicing fitness (ln) has been recorded for this entry: GUGUAGCAAUAUUACGUGAC
-1.29

// query self-splicing fitness (ln) value for entry UAAAAGCAAUAUUACGCUAG
-0.327

Item under review: AACCAGCAAUAUUACGCGCU . Reported self-splicing fitness (ln)?
-0.894

Data request, read-out self-splicing fitness (ln), for CAUUAGCAAUAUUACGAGGG
-2

// lookup self-splicing fitness (ln) for UCAAAGCAAUAUUACGUUGC
-3.23

// returns reported self-splicing fitness (ln) for input AUACAGCAAUAUUACGGAGC
-2.78

Any idea what its self-splicing fitness (ln) is? The sequence is UGGCAGCAAUAUUACGCAAA
-0.513
